System: SaOS-2 cells
Test: MTT cell viability assay on SaOS-2
Settings: SaOS-2, MTT, 24 h treatment, control = 100%; mean ± SD
Experimental endpoint: CV (%) after 24 h (cellular viability with respect to control)
Give a bare numeral; the unit % is implied.

Lab note: measured CV (%) after 24 h (cellular viability with respect to control) of CSc1nc(NCCc2cccc(F)c2)c2cnn(CC(Cl)c3ccccc3)c2n1 (centres unmarked) [SI-56] was 101.1

Lab note: measured CV (%) after 24 h (cellular viability with respect to control) of CSc1nc(Nc2cccc(Br)c2)c2cnn(CC(Cl)c3ccc(F)cc3)c2n1 (centres unmarked) [SI-128] was 63.1

Lab note: measured CV (%) after 24 h (cellular viability with respect to control) of CSc1nc(NCc2ccc(F)cc2)c2cnn(CC(Cl)c3ccccc3)c2n1 (centres unmarked) [SI-84] was 102.1

Lab note: measured CV (%) after 24 h (cellular viability with respect to control) of CSc1nc(NCc2ccccc2F)c2cnn(CC(Cl)c3ccccc3)c2n1 (centres unmarked) [SI-86] was 104.1

Lab note: measured CV (%) after 24 h (cellular viability with respect to control) of CSc1nc(Nc2cccc(Br)c2)c2cnn(CC(Cl)c3ccccc3)c2n1 (centres unmarked) [SI-91] was 100.1

---

Assignment: determine reported melting point for the given compounds.

Lab note: measured melting point of CSc1nc(NCCc2ccccc2)c2cnn(CC(Cl)c3ccc(Cl)cc3)c2n1 (stereo not drawn) was 127 to 129 °C

Lab note: measured melting point of CSc1nc(NCCc2ccccc2Cl)c2cnn(CC(Cl)c3ccccc3)c2n1 (stereo not drawn) was 99 to 100 °C

Lab note: measured melting point of CSc1nc(NCc2ccccc2)c2cnn(CC(Cl)c3ccc(Cl)cc3)c2n1 (stereo not drawn) was 130 to 131 °C

Lab note: measured melting point of CCSc1nc(NCCc2ccccc2)c2cnn(CC(Cl)c3ccccc3)c2n1 (stereo not drawn) was 99 to 100 °C

Lab note: measured melting point of CSc1nc(NCc2ccc(Cl)cc2)c2cnn(CC(Cl)c3ccccc3)c2n1 (stereo not drawn) was 126 to 127 °C

Lab note: measured melting point of COc1ccc(CCNc2nc(SC)nc3c2cnn3CC(Cl)c2ccccc2)cc1 (stereo not drawn) was 60 to 61 °C

Lab note: measured melting point of CSc1nc(NCc2ccc(F)cc2)c2cnn(CC(Cl)c3ccccc3)c2n1 (stereo not drawn) was 136 to 137 °C

Lab note: measured melting point of CSc1nc(NCc2cccc(F)c2)c2cnn(CC(Cl)c3ccccc3)c2n1 (stereo not drawn) was 113 to 114 °C

Lab note: measured melting point of CSc1nc(NCc2ccccc2Cl)c2cnn(CC(Cl)c3ccccc3)c2n1 (stereo not drawn) was 158 to 159 °C

---

Tested on: SaOS-2 cells
Experiment: MTT cell viability assay on SaOS-2
Conditions: SaOS-2, MTT, 48 h treatment, 25 μM, control = 100%; mean ± SD
hey, just use yes (1) if measured CV (%) after 48 h (cellular viability with respect to control) is less than 80%, otherwise no (0)

Challenge: Does this compound meet the criterion CV (%) after 48 h (cellular viability with respect to control) < 80%? CSc1nc(NCCc2ccc(C)cc2)c2cnn(CC(Cl)c3ccccc3)c2n1 (stereo not drawn)
Response given: no (0)

Challenge: Does this compound meet the criterion CV (%) after 48 h (cellular viability with respect to control) < 80%? CSc1nc(Nc2cccc(Cl)c2)c2cnn(CC(Cl)c3ccccc3)c2n1 (stereo not drawn)
Response given: yes (1)

Challenge: Does this compound meet the criterion CV (%) after 48 h (cellular viability with respect to control) < 80%? CSc1nc(Nc2cccc(Br)c2)c2cnn(CC(Cl)c3ccc(F)cc3)c2n1 (stereo not drawn)
Response given: yes (1)

Challenge: Does this compound meet the criterion CV (%) after 48 h (cellular viability with respect to control) < 80%? CSc1nc(NCc2ccccc2Cl)c2cnn(CC(Cl)c3ccccc3)c2n1 (stereo not drawn)
Response given: no (0)

Challenge: Does this compound meet the criterion CV (%) after 48 h (cellular viability with respect to control) < 80%? CSc1nc(Nc2cccc(F)c2)c2cnn(CC(Cl)c3ccccc3)c2n1 (stereo not drawn)
Response given: no (0)

Challenge: Does this compound meet the criterion CV (%) after 48 h (cellular viability with respect to control) < 80%? CSc1nc(NCc2cccc(F)c2)c2cnn(CC(Cl)c3ccccc3)c2n1 (stereo not drawn)
Response given: yes (1)

Challenge: Does this compound meet the criterion CV (%) after 48 h (cellular viability with respect to control) < 80%? CSc1nc(Nc2cccc(Br)c2)c2cnn(CC(Cl)c3ccccc3)c2n1 (stereo not drawn)
Response given: no (0)

Challenge: Does this compound meet the criterion CV (%) after 48 h (cellular viability with respect to control) < 80%? CSc1nc(NCc2ccccc2)c2cnn(CC(Cl)c3ccc(Cl)cc3)c2n1 (stereo not drawn)
Response given: yes (1)

Challenge: Does this compound meet the criterion CV (%) after 48 h (cellular viability with respect to control) < 80%? CC(C)(C)n1nc(-c2ccc(Cl)cc2)c2c(N)ncnc21 [PP2, reference compound]
Response given: yes (1)

Challenge: Does this compound meet the criterion CV (%) after 48 h (cellular viability with respect to control) < 80%? COc1ccc(CCNc2nc(SC)nc3c2cnn3CC(Cl)c2ccccc2)cc1 (stereo not drawn)
Response given: yes (1)

Challenge: Does this compound meet the criterion CV (%) after 48 h (cellular viability with respect to control) < 80%? CSc1nc(NCCc2ccccc2)c2cnn(CC(Cl)c3ccc(Cl)cc3)c2n1 (stereo not drawn)
Response given: no (0)

Challenge: Does this compound meet the criterion CV (%) after 48 h (cellular viability with respect to control) < 80%? Clc1cccc(Nc2ncnc3c2cnn3CC(Cl)c2ccccc2)c1 (stereo not drawn)
Response given: no (0)

Challenge: Does this compound meet the criterion CV (%) after 48 h (cellular viability with respect to control) < 80%? CCCSc1nc(Nc2cccc(Cl)c2)c2cnn(CC(Cl)c3ccccc3)c2n1 (stereo not drawn)
Response given: yes (1)

Challenge: Does this compound meet the criterion CV (%) after 48 h (cellular viability with respect to control) < 80%? CSc1nc(NCc2ccc(F)cc2)c2cnn(CC(Cl)c3ccccc3)c2n1 (stereo not drawn)
Response given: no (0)

Challenge: Does this compound meet the criterion CV (%) after 48 h (cellular viability with respect to control) < 80%? CSc1nc(NCCc2cccc(F)c2)c2cnn(CC(Cl)c3ccccc3)c2n1 (stereo not drawn)
Response given: no (0)

Challenge: Does this compound meet the criterion CV (%) after 48 h (cellular viability with respect to control) < 80%? CCSc1nc(Nc2cccc(Cl)c2)c2cnn(CC(Cl)c3ccccc3)c2n1 (stereo not drawn)
Response given: yes (1)

Challenge: Does this compound meet the criterion CV (%) after 48 h (cellular viability with respect to control) < 80%? CSc1nc(NCCc2ccc(Cl)cc2)c2cnn(CC(Cl)c3ccccc3)c2n1 (stereo not drawn)
Response given: yes (1)

Challenge: Does this compound meet the criterion CV (%) after 48 h (cellular viability with respect to control) < 80%? CSc1nc(NCCc2cccc(Cl)c2)c2cnn(CC(Cl)c3ccccc3)c2n1 (stereo not drawn)
Response given: yes (1)

Challenge: Does this compound meet the criterion CV (%) after 48 h (cellular viability with respect to control) < 80%? CCSc1nc(NCCc2ccccc2)c2cnn(CC(Cl)c3ccccc3)c2n1 (stereo not drawn)
Response given: yes (1)

Challenge: Does this compound meet the criterion CV (%) after 48 h (cellular viability with respect to control) < 80%? CSc1nc(NCc2ccc(Cl)cc2)c2cnn(CC(Cl)c3ccccc3)c2n1 (stereo not drawn)
Response given: yes (1)

Challenge: Does this compound meet the criterion CV (%) after 48 h (cellular viability with respect to control) < 80%? CSc1nc(Nc2ccccc2)c2cnn(CC(Cl)c3ccccc3)c2n1 (stereo not drawn)
Response given: no (0)

Challenge: Does this compound meet the criterion CV (%) after 48 h (cellular viability with respect to control) < 80%? CSc1nc(NCc2ccccc2)c2cnn(CC(Cl)c3ccc(F)cc3)c2n1 (stereo not drawn)
Response given: yes (1)

Challenge: Does this compound meet the criterion CV (%) after 48 h (cellular viability with respect to control) < 80%? CSc1nc(NCCc2ccccc2Cl)c2cnn(CC(Cl)c3ccccc3)c2n1 (stereo not drawn)
Response given: no (0)

Challenge: Does this compound meet the criterion CV (%) after 48 h (cellular viability with respect to control) < 80%? CSc1nc(NCc2ccccc2F)c2cnn(CC(Cl)c3ccccc3)c2n1 (stereo not drawn)
Response given: no (0)

---

Tested on: SaOS-2 cells
Assay: MTT cell viability assay on SaOS-2
Settings: SaOS-2, MTT, 24 h treatment, control = 100%; mean ± SD
Assignment: determine reported CV (%) after 24 h (cellular viability with respect to control) for the given molecules.
Give a bare numeral; the unit % is implied.

Lab note: measured CV (%) after 24 h (cellular viability with respect to control) of Clc1cccc(Nc2ncnc3c2cnn3CC(Cl)c2ccccc2)c1 (stereo not shown) was 104.1

Lab note: measured CV (%) after 24 h (cellular viability with respect to control) of CSc1nc(NCc2ccccc2)c2cnn(CC(Cl)c3ccc(F)cc3)c2n1 (stereo not shown) was 62.7

Lab note: measured CV (%) after 24 h (cellular viability with respect to control) of CSc1nc(NCCc2ccccc2)c2cnn(CC(Cl)c3ccc(Cl)cc3)c2n1 (stereo not shown) was 99.9

Lab note: measured CV (%) after 24 h (cellular viability with respect to control) of CSc1nc(NCCc2ccc(C)cc2)c2cnn(CC(Cl)c3ccccc3)c2n1 (stereo not shown) was 101.9

Lab note: measured CV (%) after 24 h (cellular viability with respect to control) of CSc1nc(Nc2cccc(Cl)c2)c2cnn(CC(Cl)c3ccccc3)c2n1 (stereo not shown) was 17.1

Lab note: measured CV (%) after 24 h (cellular viability with respect to control) of CSc1nc(Nc2ccccc2)c2cnn(CC(Cl)c3ccccc3)c2n1 (stereo not shown) was 100.1

Lab note: measured CV (%) after 24 h (cellular viability with respect to control) of CCSc1nc(NCCc2ccccc2)c2cnn(CC(Cl)c3ccccc3)c2n1 (stereo not shown) was 107.3

Lab note: measured CV (%) after 24 h (cellular viability with respect to control) of CCSc1nc(Nc2cccc(Cl)c2)c2cnn(CC(Cl)c3ccccc3)c2n1 (stereo not shown) was 76.5

Lab note: measured CV (%) after 24 h (cellular viability with respect to control) of CCCSc1nc(Nc2cccc(Cl)c2)c2cnn(CC(Cl)c3ccccc3)c2n1 (stereo not shown) was 77.8

Lab note: measured CV (%) after 24 h (cellular viability with respect to control) of COc1ccc(CCNc2nc(SC)nc3c2cnn3CC(Cl)c2ccccc2)cc1 (stereo not shown) was 101.0

Lab note: measured CV (%) after 24 h (cellular viability with respect to control) of CSc1nc(NCc2ccccc2)c2cnn(CC(Cl)c3ccc(Cl)cc3)c2n1 (stereo not shown) was 52.2

Lab note: measured CV (%) after 24 h (cellular viability with respect to control) of CC(C)(C)n1nc(-c2ccc(Cl)cc2)c2c(N)ncnc21 [PP2, reference compound] was 36.8

Lab note: measured CV (%) after 24 h (cellular viability with respect to control) of CSc1nc(NCCc2ccc(Cl)cc2)c2cnn(CC(Cl)c3ccccc3)c2n1 (stereo not shown) was 85.2

Lab note: measured CV (%) after 24 h (cellular viability with respect to control) of CSc1nc(NCCc2ccccc2Cl)c2cnn(CC(Cl)c3ccccc3)c2n1 (stereo not shown) was 102.9

Lab note: measured CV (%) after 24 h (cellular viability with respect to control) of CSc1nc(NCCc2cccc(Cl)c2)c2cnn(CC(Cl)c3ccccc3)c2n1 (stereo not shown) was 80.6

Lab note: measured CV (%) after 24 h (cellular viability with respect to control) of CSc1nc(NCc2ccc(Cl)cc2)c2cnn(CC(Cl)c3ccccc3)c2n1 (stereo not shown) was 113.4

Lab note: measured CV (%) after 24 h (cellular viability with respect to control) of CSc1nc(Nc2cccc(F)c2)c2cnn(CC(Cl)c3ccccc3)c2n1 (stereo not shown) was 94.8

Lab note: measured CV (%) after 24 h (cellular viability with respect to control) of CSc1nc(NCc2ccccc2Cl)c2cnn(CC(Cl)c3ccccc3)c2n1 (stereo not shown) was 101.7

Lab note: measured CV (%) after 24 h (cellular viability with respect to control) of CSc1nc(NCc2cccc(F)c2)c2cnn(CC(Cl)c3ccccc3)c2n1 (stereo not shown) was 106.2
